Test system: P. aeruginosa PAM1154 carrying pUCP24-KPC-2 (PAM4135)
Assay: MIC, CLSI broth microdilution
Format: cell-based
Conditions: Pseudomonas aeruginosa; PAM4135, pUCP24-KPC-2; drug alone
QUANTITY: MIC (mg/L)
Give bare numbers, in mg/L.

[[record]]
compound = "CC(C)(O/N=C(\\C(=O)N[C@@H]1C(=O)N2C(C(=O)[O-])=C(C[n+]3ccccc3)CS[C@H]12)c1csc(N)n1)C(=O)O"
quantity = "MIC"
observed_measurement = 32

[[record]]
compound = "C[C@@H](O)[C@H]1C(=O)N2C(C(=O)O)=C(S[C@@H]3CN[C@H](C(=O)N(C)C)C3)[C@H](C)[C@H]12"
quantity = "MIC"
observed_measurement = 64


Shifting focus to the compound that follows.
Q: Could you share which MIC value was measured for CO/N=C(\C(=O)N[C@@H]1C(=O)N2C(C(=O)[O-])=C(C[N+]3(C)CCCC3)CS[C@H]12)c1csc(N)n1 [Cefepime, cefepime] ?
A: 256
